Test system: Klebsiella aerogenes DSM 30053
Test: fold change of Putrescine concentration vs plate DMSO controls (fold change (ratio)); higher = more amine produced, active = hit call of the paper (significant change in both replicates, either direction)
Assay context: incubation time: 27 h, anaerobic, 37 °C
Label rule, in plain words: fold change of Putrescine concentration of 1 and up is 1 (yes), under 1 is 0 (no).

{"Molecule": "CCn1cc(C(=O)O)c(=O)c2cnc(N3CCNCC3)nc21 [Pipemidic acid] (20 µM)", "Target under test": "Klebsiella aerogenes DSM 30053", "Class label": "1 (yes)"}
{"Molecule": "Clc1ccc(C(Cn2ccnc2)OCc2csc3c(Cl)cccc23)c(Cl)c1 (configuration not stated) [Sertaconazole nitrate] (20 µM)", "Target under test": "Klebsiella aerogenes DSM 30053", "Class label": "0 (no)"}
{"Molecule": "NC(=O)C1CO1 (configuration not stated) [Glycidamide] (20 µM)", "Target under test": "Klebsiella aerogenes DSM 30053", "Class label": "1 (yes)"}
{"Molecule": "CCC[C@H](N[C@@H](C)C(=O)N1[C@H](C(=O)O)C[C@@H]2CCCC[C@@H]21)C(=O)OCC [Perindopril] (20 µM)", "Target under test": "Klebsiella aerogenes DSM 30053", "Class label": "1 (yes)"}
{"Molecule": "CC(=O)Oc1cc(C(C)C)c(OCCN(C)C)cc1C [Moxisylyte hydrochoride] (20 µM)", "Target under test": "Klebsiella aerogenes DSM 30053", "Class label": "1 (yes)"}
{"Molecule": "CC(=O)Oc1cc(C(F)(F)F)ccc1C(=O)O [Triflusal] (20 µM)", "Target under test": "Klebsiella aerogenes DSM 30053", "Class label": "0 (no)"}

---

System: Klebsiella aerogenes DSM 30053
Test: growth (OD595) fold change vs plate DMSO controls (fold change (ratio)); higher = more growth
Assay context: incubation time: 27 h, anaerobic, 37 °C
Counter-ions that a name gives are not always drawn.
Assay metric: growth

{"Compound": "CCOC(=O)C1=C(COCCN)NC(C)=C(C(=O)OC)C1c1ccccc1Cl (centres undefined) [Amlodipine] (20 µM)", "Test result": 1}
{"Compound": "COCC(=O)O[C@]1(CCN(C)CCCc2nc3ccccc3[nH]2)CCc2cc(F)ccc2[C@@H]1C(C)C [Mibefradil hydrochloride] (20 µM)", "Test result": 1}
{"Compound": "CC(C)c1nc(CN(C)C(=O)N[C@H](C(=O)N[C@@H](Cc2ccccc2)C[C@H](O)[C@H](Cc2ccccc2)NC(=O)OCc2cncs2)C(C)C)cs1 [Ritonavir] (20 µM)", "Test result": 0.987}
{"Compound": "CCN(CC)CCOCCOC(=O)C1(c2ccccc2)CCCC1 [Carbetapentane citrate] (20 µM)", "Test result": 0.996}

---

Quick reference: fold change of Histamine concentration of the listed items.
Tested on: Klebsiella aerogenes DSM 30053
Test: fold change of Histamine concentration vs plate DMSO controls (fold change (ratio)); higher = more amine produced, active = hit call of the paper (significant change in both replicates, either direction)
Assay context: incubation time: 27 h, anaerobic, 37 °C
Counter-ions that a name gives are not always drawn.

{"Compound": "N[C@@H](Cc1cc(I)c(Oc2ccc(O)c(I)c2)c(I)c1)C(=O)O [Liothyronine] (20 µM)", "fold change of Histamine concentration": 0.981}
{"Compound": "CN[C@@H]1[C@H](O[C@H]2[C@H](O[C@H]3[C@H](O)[C@@H](O)[C@H](N=C(N)N)[C@@H](O)[C@@H]3N=C(N)N)O[C@@H](C)[C@]2(O)C=O)O[C@@H](CO)[C@H](O)[C@H]1O [Streptomycin sulfate] (20 µM)", "fold change of Histamine concentration": 0.988}
{"Compound": "CCCCCCCCNC(C)C(O)c1ccc(SC(C)C)cc1 (stereo not given) [Suloctidil] (20 µM)", "fold change of Histamine concentration": 0.987}
{"Compound": "CN(C)CCc1c[nH]c2ccc(C[C@H]3COC(=O)N3)cc12 [Zolmitriptan] (20 µM)", "fold change of Histamine concentration": 1.01}
{"Compound": "Cc1cccc(C)c1NC(=O)CC12CCCN1CCC2 [Pilsicainide Hydrochloride] (20 µM)", "fold change of Histamine concentration": 0.986}
{"Compound": "CC(=O)SCC(Cc1ccccc1)C(=O)NCC(=O)OCc1ccccc1 (stereo not given) [Racecadotril] (20 µM)", "fold change of Histamine concentration": 0.978}
{"Compound": "CC(C(=O)O)c1cccc(Oc2ccccc2)c1 (stereo not given) [Fenoprofen calcium salt dihydrate] (20 µM)", "fold change of Histamine concentration": 0.981}
{"Compound": "CN(CCOc1ccc(NS(C)(=O)=O)cc1)CCc1ccc(NS(C)(=O)=O)cc1 [Dofetilide] (20 µM)", "fold change of Histamine concentration": 1}
{"Compound": "CN[C@H]1CC[C@@H](c2ccc(Cl)c(Cl)c2)c2ccccc21 [Sertraline] (20 µM)", "fold change of Histamine concentration": 0.995}
{"Compound": "N=C(N)NC(=N)NCCc1ccccc1 [Phenformin hydrochloride] (20 µM)", "fold change of Histamine concentration": 1}
